Molecular target: Prostaglandin G/H synthase 1 (Ovis aries)
Sequence (whole entry): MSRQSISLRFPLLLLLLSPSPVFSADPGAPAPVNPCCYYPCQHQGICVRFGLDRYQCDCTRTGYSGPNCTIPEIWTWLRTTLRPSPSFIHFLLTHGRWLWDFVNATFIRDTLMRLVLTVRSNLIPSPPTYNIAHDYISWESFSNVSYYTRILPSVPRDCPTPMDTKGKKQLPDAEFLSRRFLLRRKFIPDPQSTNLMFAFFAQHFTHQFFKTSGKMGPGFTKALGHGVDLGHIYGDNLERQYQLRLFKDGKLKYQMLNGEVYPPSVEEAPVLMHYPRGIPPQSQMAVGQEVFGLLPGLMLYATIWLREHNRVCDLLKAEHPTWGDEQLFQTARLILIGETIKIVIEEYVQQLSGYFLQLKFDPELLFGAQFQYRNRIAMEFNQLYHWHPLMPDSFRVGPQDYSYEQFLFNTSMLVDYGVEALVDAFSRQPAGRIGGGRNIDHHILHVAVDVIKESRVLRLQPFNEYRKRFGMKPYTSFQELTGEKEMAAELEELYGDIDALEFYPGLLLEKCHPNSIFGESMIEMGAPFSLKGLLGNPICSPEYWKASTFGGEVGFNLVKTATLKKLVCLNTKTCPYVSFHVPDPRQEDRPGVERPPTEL
Assay: Inhibition of ovine COX-1 using [14C] arachidonic acid as substrate at 4 uM preincubated for 17 mins before substrate addition measured after 3 mins by thin-layer chromatographic analysis
Please use label 1 whenever inhibition is not below 70%, and label 0 whenever it is.

## Task Is it the case that `COc1ccc(-c2cccc(/C=C3\C=C(CC(=O)O)c4cc(F)ccc43)n2)cc1` has inhibition reaching or exceeding 70%?
## Result label 0

## Task Can you check `O=C(O)CC1=C/C(=C\c2cccc(-c3cccs3)n2)c2ccc(F)cc21` next?
## Result label 0

## Task Can you check `O=C(O)CC1=C/C(=C\c2ccc(Br)cc2)c2ccc(F)cc21` next?
## Result label 1

## Task Can you check `O=C(O)CC1=C/C(=C\c2ccc(SC(F)(F)F)cc2)c2ccc(F)cc21` next?
## Result label 1

## Task Can you check `CCOC(=O)C(C)(C)C1=C/C(=C\c2ccc(SC)cc2)c2ccc(F)cc21` next?
## Result label 0

Data provenance: ChEMBL document CHEMBL2062428
